Reported T/C values for a set of compounds
Test system: P388 leukemia ip, CD2F1 mice, survival T/C
Assay notes: NCI In Vivo Anticancer Drug Screen. Data for tumor model P388 Leukemia (intraperitoneal) in CD2F1 (CDF1) mice
Experimental conditions: endpoint: median survival time; dose: 50.0 mg/kg/injection; schedule: Q01DX009 (ip); vehicle: Klucel (hydroxypropylcellulose) (HPC); higher = longer survival
Toxic doses and inconclusive results are not listed.
Metric: T/C

In [3]: df
Out[3]:
                                    compound                              assay_system  reported_measurement
 0  O=C(Oc1ccccc1)OC1CCCN(C(=O)Oc2ccccc2)C1 (configuration not stated)  P388 leukemia ip, CD2F1 mice, survival T/C       93 % of control
 1                  CCCCCCCOc1ccc(C(=O)O)cc1  P388 leukemia ip, CD2F1 mice, survival T/C      107 % of control
 2                          Cc1nc2sccn2c1C=O  P388 leukemia ip, CD2F1 mice, survival T/C      114 % of control
 3             Clc1ccc(N=NN2CCc3ccccc3C2)cc1  P388 leukemia ip, CD2F1 mice, survival T/C       99 % of control
 4  CCOC(=O)c1cc(Cl)cc2c(=O)c3c([nH]c12)C(=O)c1c([nH]c2c(C(=O)OCC)cc(Cl)cc2c1=O)C3=O  P388 leukemia ip, CD2F1 mice, survival T/C       99 % of control
 5   c1ccc(-c2csc(-c3nc(-c4ccccc4)cs3)n2)cc1  P388 leukemia ip, CD2F1 mice, survival T/C      113 % of control
 6               CCCCCC(=O)C(=O)c1ccc(O)cc1O  P388 leukemia ip, CD2F1 mice, survival T/C       89 % of control
 7           Cc1cc(N/N=C/c2cccnc2)c2ccccc2n1  P388 leukemia ip, CD2F1 mice, survival T/C       94 % of control
 8  CC1(C)O[S+](c2ccccc2)c2ccccc21 (configuration not stated)  P388 leukemia ip, CD2F1 mice, survival T/C      102 % of control
 9  COc1cc2c(cc1OC)C1CC(=O)CCN1CC2 (configuration not stated)  P388 leukemia ip, CD2F1 mice, survival T/C      101 % of control
10              CSc1nc(N)c(C(=O)NC2CCCCC2)s1  P388 leukemia ip, CD2F1 mice, survival T/C      100 % of control
11  C=C(C)C1CC2(C)C(C)CC(O)CC2C(OC(=O)C=C(C)C)C1O (configuration not stated)  P388 leukemia ip, CD2F1 mice, survival T/C       96 % of control
12         O=[N+]([O-])c1cc[n+]([O-])c(Cl)c1  P388 leukemia ip, CD2F1 mice, survival T/C       96 % of control
13                       O=C(N1CCCCCC1)N1CC1  P388 leukemia ip, CD2F1 mice, survival T/C       93 % of control
14                        Clc1cc(Cl)c(Cl)nn1  P388 leukemia ip, CD2F1 mice, survival T/C       94 % of control
15              CCCCCCCCCCCCNC(=O)NCC(=O)OCC  P388 leukemia ip, CD2F1 mice, survival T/C      100 % of control
16  Cn1c(-c2ccccc2)c(-c2ccccc2)c(=O)c(-c2ccccc2)c1-c1ccccc1  P388 leukemia ip, CD2F1 mice, survival T/C       92 % of control
